# assay-system: rat EP4 receptor (Rattus norvegicus (Rat))
# Sequence (P43114 whole entry): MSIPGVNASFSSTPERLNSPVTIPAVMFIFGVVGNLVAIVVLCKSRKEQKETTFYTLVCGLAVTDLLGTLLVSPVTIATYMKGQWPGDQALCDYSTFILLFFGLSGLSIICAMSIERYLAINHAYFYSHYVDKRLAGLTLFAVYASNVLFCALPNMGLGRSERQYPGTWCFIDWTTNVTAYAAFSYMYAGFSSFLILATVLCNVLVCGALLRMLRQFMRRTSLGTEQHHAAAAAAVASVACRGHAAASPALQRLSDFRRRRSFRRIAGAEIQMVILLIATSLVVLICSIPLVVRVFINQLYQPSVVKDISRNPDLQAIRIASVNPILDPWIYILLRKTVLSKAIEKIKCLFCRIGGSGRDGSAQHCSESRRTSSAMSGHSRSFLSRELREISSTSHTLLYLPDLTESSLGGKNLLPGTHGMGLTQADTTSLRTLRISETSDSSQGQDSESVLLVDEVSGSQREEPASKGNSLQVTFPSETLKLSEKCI
# procedure-text: cAMP level assay for EP4 agonist (STEP plate format)
# Assay type: cell-based
# measurement-conditions: cAMP readout, EP4; read-out: STEP cell functional assay EC50 cAMP/EP4
metric: EC50 (nM)
Give the quantity in nM, number only.

Measured EC50 of C[C@H](CCCc1ccccc1)[C@@H](O)/C=C/[C@H]1CC(F)(F)C(=O)N1CCCc1ccc(C(=O)O)s1 [Example 28H] : 3.15

Measured EC50 of C[C@@H](CCCc1ccccc1)[C@@H](O)/C=C/[C@H]1CC(F)(F)C(=O)N1CCCc1ccc(C(=O)O)s1 [Example 28D] : 5.68

Measured EC50 of C[C@H](CCCc1ccccc1)[C@H](O)/C=C/[C@H]1CC(F)(F)C(=O)N1CCCc1ccc(C(=O)O)s1 [Example 28G] : 0.0162

Measured EC50 of C[C@@H](CCCc1ccccc1)[C@H](O)/C=C/[C@H]1CC(F)(F)C(=O)N1CCCc1ccc(C(=O)O)s1 [Example 28C] : 0.01

Measured EC50 of COC(=O)c1ccc(CCCN2C(=O)C(F)(F)C[C@@H]2/C=C/[C@@H](O)[C@@H](C)CCc2ccccc2)s1 [Example 37A] : 8.09
